- System: BxPC-3 (pancreas, adenocarcinoma; MTAP-Deleted)
- measurement.protocol: In vitro cell viability assay (CellTiter-Glo, 9 days), BxPC-3
- Format: cell-based
- condition.notes: Homo sapiens, BXPC-3, 216 h, 9-day treatment
Criterion: GI50 strictly less than 10 nM. Met: Criterion met. Not met: Criterion not met.

Query: GI50 strictly < 10 nM for this compound? Cc1ncc2c(N)nc3cnc(C(=O)N4CCC[C@@H]5Oc6cc(OC(F)(F)F)ccc6[C@@H]54)cc3n12
Reply: Criterion not met

Query: Below 10 nM on GI50? Entry Nc1nc2cnc(C(=O)N3CCC[C@@H]4Oc5cc(C(F)(F)F)ccc5[C@@H]43)cc2n2cncc12
Reply: Criterion met

Query: In the record for Nc1nc2cnc(C(=O)N3CCC[C@@H]4Oc5cc(OC(F)(F)F)ccc5[C@@H]43)cc2n2cncc12 , is GI50 less than 10 nM?
Reply: Criterion not met

Query: Problem: For the compound C[C@@H]1CN(C(=O)c2cc3c(cc2F)nc(N)c2cncn23)[C@H]2c3ccc(OC(F)(F)F)cc3C[C@H]2O1 (single isomer, unassigned) , is GI50 under 10 nM?
Reply: Criterion not met
